Source of measurements: patent US7329757B2

PROCEDURE_DETAILS: logP determination by HPLC on reversed-phase column (C 18), EEC Directive 79/831 Annex V.A8
Type: physicochemical
CONDITION_PARAMETERS: reversed-phase HPLC column (C 18); labelled a): acidic range, 0.1% aqueous phosphoric acid/acetonitrile gradient, 43° C.
VALUE_TYPE: chromatographic logP
Respond with the number and no other words.

What measured chromatographic logP goes with "O=c1ccc(C(F)(F)F)cn1-c1cccc(C(F)(F)F)c1" ?
2.78

----------
PROCEDURE_DETAILS: logP determination by HPLC on reversed-phase column (C 18), EEC Directive 79/831 Annex V.A8
Format: physicochemical
CONDITION_PARAMETERS: reversed-phase HPLC column (C 18); HPLC, range (acidic/neutral) not labelled
VALUE_TYPE: chromatographic logP
Simply state the number, no unit and no words.

What measured chromatographic logP goes with Cc1cc/c(=N\C2CC2)n(-c2cccc(C(F)(F)F)c2)c1 [Example 8] ?
1.51
